Data provenance: PubChem BioAssay AID651820

assay: qHTS Assay for Inhibitors of Hepatitis C Virus (HCV); settings: Huh7.5.1 HCVcc-Cre infection, luciferase reporter, 44 h; series mostly up to 41.8 µM
About 12,000 (3.5%) of roughly 340,000 compounds were called active. About 18% were inconclusive and are not listed. Calls come from the whole dose curve; as a rule, active = well fitted inhibition curve with a large enough effect; inconclusive = small, poorly fitted or top-dose-only effect, or another doubt; inactive = no such curve, though single readings can be large or run the other way. For the sample, actives were picked, then their nearest neighbours and some compounds at random.
Reply using exactly one outcome from active, inactive

Please review the entries below; each comes with its answer.
compound=CCOC(=O)c1c(C)nc2c(c1C)c(=O)oc1ccccc12 class_label=inactive
compound=O=c1oc2ccccc2c(=O)c2ccccc12 class_label=inactive

Fill in: this test's call for Nc1c(C(=O)OCC(=O)Nc2ccc(OC(F)F)cc2)[nH]c(=O)[nH]c1=O is ___
inactive

Fill in: this test's call for CC1O[C@@H](OC2C(O)C(C)O[C@H](OC(=O)[C@]34CCC(C)(C)C[C@H]3C3=CCC5[C@@]6(C)CC(O)C(O[C@@H]7OC(CO)C(O)[C@@H](O)[C@@H]7O)[C@@](C)(C(=O)O)C6CC[C@@]5(C)[C@]3(CO)CC4)C2O[C@H]2OC(C)[C@@H](O[C@@H]3OCC(O[C@@H]4OC(CO)C(O)[C@H](O)C4O)[C@@H](O)[C@@H]3O)[C@H](O)C2O)C(O)C(O)C1O (some centres not stated) is ___
inactive

Fill in: this test's call for Cc1ccc(NC(=O)CN(C)C(=O)c2ccc(Cl)c(S(=O)(=O)NCc3ccco3)c2)cc1 is ___
inactive

Fill in: this test's call for CC(=O)N1CCCc2cc(S(=O)(=O)N3CCCC(C(=O)NCc4ccc(Cl)cc4)C3)ccc21 (configuration not stated) is ___
active

Fill in: this test's call for Cc1ccccc1-n1nnc2c(=O)oc3ccccc3c21 is ___
active

----------
test: qHTS Assay for Inhibitors of Hepatitis C Virus (HCV); conditions: Huh7.5.1 HCVcc-Cre infection, luciferase reporter, 44 h; series mostly up to 41.8 µM
The campaign covered roughly 340,000 compounds. About 12,000 (3.5%) were called active. Another 18% or so got no clear call; they are omitted. The call rests on the fitted dose curve; in most records, active means well fitted inhibition curve with a large enough effect; inconclusive means small, poorly fitted or top-dose-only effect, or another doubt; inactive means no such curve, though single readings can be large or run the other way. The full list was thinned out, with actives kept by preference.
Reply using exactly one outcome from active, inactive

compound=CCOc1cc2[nH]c(=S)n(Cc3ccc(C(=O)N4CCN(C)CC4)cc3)c(=O)c2cc1OCC class_label=active
compound=Clc1ccc(Nc2ncnc3c2nnn3Cc2ccccc2)cc1 class_label=inactive
compound=CCOc1ccc(S(=O)(=O)N2CCC(C(=O)NCC(=O)Nc3cccc(Cl)c3C)CC2)cc1 class_label=inactive
compound=COC(=O)[C@]1(CC(C)C)N[C@H](c2ccc(SC3CCCCC3)cc2)[C@@H]2C(=O)N(C)C(=O)[C@@H]21 class_label=inactive
compound=CC(=O)Nc1ccc(NC(=O)CSc2ncnc3c2cnn3Cc2ccccc2)cc1 class_label=inactive

Next item in the queue.
Fill in: this test's call for COc1ccccc1Cn1c(=S)[nH]c2cc(C(=O)N3CCN(C)CC3)ccc2c1=O is ___
inactive

----------
assay: qHTS Assay for Inhibitors of Hepatitis C Virus (HCV); conditions: Huh7.5.1 HCVcc-Cre infection, luciferase reporter, 44 h; series mostly up to 41.8 µM
Hit rate of the full screen: of about 340,000 compounds, about 12,000 (3.5%) were called active. Not shown: some 18% with an inconclusive outcome. The call rests on the fitted dose curve; in most records, active means well fitted inhibition curve with a large enough effect; inconclusive means small, poorly fitted or top-dose-only effect, or another doubt; inactive means no such curve, though single readings can be large or run the other way. This is one part of a sample in which actives are shown more often than they occur.
Reply using exactly one outcome from TRUE = active, FALSE = inactive

Please review the entries below; each comes with its answer.
smi=O=[N+]([O-])c1ncc(Br)cc1Nc1ccccc1 class_label=FALSE
smi=O=C(CCl)Nc1ccc(Sc2ccc(NC(=O)CCl)cc2)cc1 class_label=TRUE
smi=Cc1ccc(NC(=O)CC(=O)Nc2ccc(C)cc2)cc1 class_label=FALSE
smi=CC[C@]1(C(=O)OC)[C@H]2C(=O)N(C)C(=O)[C@H]2[C@H]2CN(C)C(=NCc3ccccc3)N21 class_label=FALSE
smi=Cc1ccc(S(=O)(=O)N2[C@@H](c3cccc(Cl)c3)C(C(=O)O)=CC[C@H]2c2ccc(Cl)c(Cl)c2)cc1 class_label=FALSE
smi=O=C(COC(=O)c1ccc(O)cc1O)NC(=O)c1ccccc1 class_label=FALSE
smi=Cc1ccc(S(=O)(=O)N(C)c2ccc(OCC(=O)OCC(=O)N(CC#N)c3ccccc3)cc2)cc1 class_label=FALSE
smi=CCCc1cc(=O)[nH]c(SCC(=O)Nc2ccc(S(=O)(=O)N3CCCC3)cc2)n1 class_label=FALSE

Fill in: this test's call for COC(=O)c1cc(-c2cccs2)nc2ccccc12 is ___
TRUE

Fill in: this test's call for O=C(NCCN1CCOCC1)c1cc(-c2cccs2)nc2ccccc12 is ___
FALSE
